- study_target: CCKB receptor (Mus musculus, UniProt P56481)
- Construct: The cortex was dissected, weighed and homogenised in 40 ml ice-cold buffer; tissue Charles River (animals); host or cells: cerebral cortex of male CD1 mice, membranes
- Sequence (P56481 whole entry): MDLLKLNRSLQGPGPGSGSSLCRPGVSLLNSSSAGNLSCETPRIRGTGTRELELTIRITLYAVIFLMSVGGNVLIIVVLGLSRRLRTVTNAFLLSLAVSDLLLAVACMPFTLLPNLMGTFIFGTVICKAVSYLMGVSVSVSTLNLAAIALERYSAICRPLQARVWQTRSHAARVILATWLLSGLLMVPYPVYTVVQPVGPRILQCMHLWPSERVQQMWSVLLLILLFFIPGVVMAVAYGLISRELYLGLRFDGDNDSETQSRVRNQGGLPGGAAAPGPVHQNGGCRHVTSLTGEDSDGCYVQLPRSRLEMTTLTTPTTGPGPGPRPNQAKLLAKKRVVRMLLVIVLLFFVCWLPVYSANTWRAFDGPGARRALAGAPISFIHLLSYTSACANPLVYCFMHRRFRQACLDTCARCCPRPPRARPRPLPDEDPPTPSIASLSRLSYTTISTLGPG
- assay_details: radioligand binding assay at the CCKB receptor in mouse cortical membranes ([125I]-CCK8S)
- recorded_conditions: [125I]-CCK8S 200 pM, 150 min at 21±3° C., pH 7.2, read-out: pKi (Mouse cortex) (converted)
Just a reminder that ties go to F: only Ki strictly below 1 µM counts as T.

Nc1cccc(CN2C(=O)C(CC34CC5CC(CC(C5)C3)C4)N(C(=O)CC(=O)O)CCC(=O)c3ccccc32)c1 (racemic)
F
CC(=O)N1[C@H](CC23CC4CC(CC(C4)C2)C3)C(=O)N(C)c2ccccc2C(=O)C[C@H]1C(=O)O
F
CC(=O)N1[C@H](CC23CC4CC(CC(C4)C2)C3)C(=O)N(Cc2ccccc2C)c2ccccc2C(=O)C[C@H]1C(=O)NCC(=O)O
T
Cc1cccc(NC(=O)N2CCCc3ccccc3N(CC(=O)OC(C)(C)C)C(=O)C2)c1
F

Please look at the following compound next.
For this compound, is Ki lower than 1 µM? `CC(=O)N1[C@H](CC23CC4CC(CC(C4)C2)C3)C(=O)N(Cc2cccc(Cl)c2)c2ccccc2C(=O)C[C@H]1C(=O)O`
F
